Reference source for all entries: patent US20160137639A1

# experimental target: human RORγ (Homo sapiens)
# Construct: human, NM_005060.3 and from Ser253 to Lys518; expressed in transfected cells; host or cells: CHO cells (transient co-transfection with pG5-Luc reporter)
# Sequence (P51449 253-518): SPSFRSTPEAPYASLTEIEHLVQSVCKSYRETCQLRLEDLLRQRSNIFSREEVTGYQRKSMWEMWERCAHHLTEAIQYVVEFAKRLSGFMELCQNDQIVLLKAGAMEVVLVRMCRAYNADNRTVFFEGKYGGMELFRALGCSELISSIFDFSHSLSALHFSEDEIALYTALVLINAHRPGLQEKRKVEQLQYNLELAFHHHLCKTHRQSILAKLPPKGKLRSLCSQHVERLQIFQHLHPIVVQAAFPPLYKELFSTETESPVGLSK
# assay notes: Luciferase reporter gene assay of inhibitory effect against RORγ transcriptional activity (GAL4-hRORγ plasmid in CHO cells)
# Assay type: cell-based
# particulars: read-out: LUC EC50 (μM) hRORg
metric: EC50

Query: Please indicate EC50 recorded for CNC(=O)CC(CC(=O)Nc1ccc(C)cc1C)c1nnc(CCCC(C)C)n1C1CC1 (racemic)
Reply: > 3 µM

Query: State its EC50: "Cc1ccc(CCNC(=O)CCc2nnc(CCC(C)C)n2C2CC2)cc1"
Reply: > 3 µM

Query: Answer with the recorded EC50 for the molecule listed here: CC(=O)N1C[C@H](C(=O)Nc2ccc(C)cc2C)[C@@H](c2nnc(CCC(C)(C)C(C)C)n2C2CC2)C1 (racemic)
Reply: < 3 µM

Query: Supply recorded EC50 for "Cc1ccc(CNC(=O)CCc2nnc(CCC(C)C)n2C2CC2)c(C)c1" here.
Reply: < 3 µM

Query: Return EC50 (reported value) for this molecule: "Cc1ccc(NC(=O)C[C@H](CCO)c2nnc(CCCC(C)(C)C)n2CC(F)(F)F)c(C)c1"
Reply: < 3 µM

Query: Consider the molecule CC(=O)N1C[C@H](C(=O)Nc2ccc(C)cc2C)[C@@H](c2nnc(-c3cc(C(C)C)on3)n2C2CC2)C1 (racemic) . State its measured EC50.
Reply: < 3 µM

Query: Assign EC50 to the following record: "CCn1c(CCC(=O)Nc2cccc3ccccc23)nnc1CCc1ccccc1"
Reply: < 3 µM

Query: Complete the entry with EC50 for "Cc1ccc(NC(=O)CCc2nnc(CCC(C)C)n2C2CC2)cc1"
Reply: > 3 µM

Query: Determine its reported EC50: "CCc1cccc(NC(=O)CCc2nnc(CCC(C)C)n2C2CC2)c1"
Reply: > 3 µM

Query: Respond only with EC50 recorded for "CCn1c(CCCC(C)(C)C)nnc1[C@@H]1[C@@H](C(=O)Nc2ccc(C)cc2C)CCN1C(C)=O"
Reply: < 3 µM

Query: Input COc1cc(C)ccc1CNC(=O)CC(CCO)c1nnc(CCCC(C)C)n1C1CC1 (racemic) , output reported EC50.
Reply: < 3 µM

Query: Provide only the value of recorded EC50 for "CC(=O)N1C[C@@H](C(=O)Nc2ccc(C)cc2C)[C@H](c2nnc([C@H]3C[C@@H](OC(C)C)C3)n2C2CC2)C1"
Reply: > 3 µM

Query: # return recorded EC50 for input "CCc1ccccc1NC(=O)CCc1nnc(CCC(C)C)n1C1CC1"
Reply: > 3 µM

Query: Recall and state the measured EC50 for CC(=O)N1C[C@H](C(=O)Nc2ccc(C)cc2C)[C@@H](c2nnc(CCC(C)C)n2C2CC2)C1 (racemic) .
Reply: > 3 µM

Query: Identify the reported EC50 for the following entry. "O=C(CCc1nnc(C2Cc3ccccc3C2)n1C1CC1)Nc1cccc2ccccc12"
Reply: < 3 µM

Query: Give a short answer stating reported EC50 for "COc1cc(C)ccc1CNC(=O)CCc1nnc(CC[C@H]2CC[C@H](C)CC2)n1C1CC1" .
Reply: < 3 µM

Query: // fetch EC50 given entry "Cc1ccc(NC(=O)CCc2nnc(-c3ccc(OC(C)C)cc3)n2C2CC2)c(C)c1"
Reply: > 3 µM

Query: Look up and state reported EC50 for "COc1ccc(F)cc1CNC(=O)CCc1nnc(CCC(C)C)n1C1CC1"
Reply: > 3 µM

Query: Please give measured EC50 of the following entry: "Cc1c(Cl)cccc1NC(=O)CCc1nnc(C2CN(C(=O)C(C)C)C2)n1C1CC1"
Reply: > 3 µM

Query: Please look at this molecule and report its EC50: "Cc1ccc(NC(=O)C[C@H](CCC(=O)O)c2noc(-c3cc(C4CC(F)(F)C4)on3)c2C2CC2)c(Cl)c1"
Reply: < 3 µM

Query: Given the molecule CC(=O)N1C[C@H](C(=O)Nc2cccc(C)c2C)[C@@H](c2nnc(CCCC(C)(C)C)n2C2CC2)C1 (racemic) , write its reported EC50.
Reply: < 3 µM

Query: Quickly give me recorded EC50 for "CCn1c(CCC(=O)Nc2cccc(Cl)c2Cl)nnc1C1Cc2ccccc2C1"
Reply: > 3 µM

Query: Return the recorded EC50 value; entry: "Cc1c(Cl)cccc1NC(=O)CCc1nnc(CCN(C)C(C)(C)C)n1C1CC1"
Reply: > 3 µM

Query: Output measured EC50 for this item: Cc1ccc(NC(=O)CC(Cc2cc(O)no2)c2nnc([C@H]3C[C@@H](CC(C)C)C3)n2C2CC2)c(C)c1 (mixture of isomers)
Reply: < 3 µM

Query: Please report EC50 for the following molecule: "COc1cccc(CNC(=O)CCc2nnc(CCC(C)C)n2C2CC2)c1C"
Reply: > 3 µM

Query: Return value of EC50 for input "Cc1c(Cl)cccc1NC(=O)CCc1nnc([C@H]2CC[C@H](C(C)C)CC2)n1C1CC1" , no commentary.
Reply: < 3 µM

Query: Return reported EC50. Input molecule: CC(=O)N1C[C@H](C(=O)Nc2ccc(C)cc2C)[C@@H](c2nnc(C3CC4(CCCCC4)C3)n2C2CC2)C1 (racemic) [Example F-452]
Reply: < 3 µM

Query: Supply measured EC50 of "Cc1ccc(NC(=O)[C@H]2C(=O)N(C)C[C@@H]2c2nnc(CCCC(C)(C)C)n2C2CC2)c(C)c1" in your reply.
Reply: < 3 µM

Query: Supply measured EC50 of "Cc1ccc(NC(=O)C[C@H](CCC(=O)O)c2noc(-c3noc(CCC(C)C)c3Cl)c2C2CC2)c(Cl)c1" in your reply.
Reply: < 3 µM

Query: Please supply the value of reported EC50 for the item "CCn1c(CCC(=O)Nc2cc(C)cc(C)c2)nnc1CCC(C)(C)C"
Reply: > 3 µM

Query: Please report the measured EC50 for Cc1c(Cl)cccc1NC(=O)CCc1nnc(C(C)CC(C)C)n1C1CC1 (racemic)
Reply: > 3 µM
